B1: Neutrophil cytosol factor 2, residues 456 to 514; numbered along this chain, P19878 (parent)
chain: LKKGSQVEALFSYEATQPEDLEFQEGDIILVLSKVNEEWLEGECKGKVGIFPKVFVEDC

variants of: B1; experiment: abundance fitness (aPCA) (normalised: wild type 0, dead -1); higher = more abundant; growth selection in yeast, the domain comes from the species named; conditions: Homo sapiens
I'd be grateful if you could share measured abundance fitness for these entries.
Answers are plain numbers.

Here's what some known entries look like.
# abundance fitness (variant: `K47A` ) is -1.04

# abundance fitness (variant: `D58M` ) is -0.203

# abundance fitness (variant: `P52M` ) is -0.253

# abundance fitness (variant: `K34T` ) is 0.4

# abundance fitness (variant: `T16E` ) is -0.368

# abundance fitness (variant: `K2W` ) is -0.109

# abundance fitness (variant: `A9I` ) is -0.533

# abundance fitness (variant: `C59Y` ) is -0.204

Below are some variants; for each one, tell me its abundance fitness.
1. D20N
2. I28T

1. -0.703
2. 0.163

# abundance fitness (variant: `V48W` ) is -0.901

These data points were gathered from the Human Domainome abundance scans (Beltran et al. 2025).
